Cited source for all entries: ChEMBL document CHEMBL5131397

test.protocol: Intrinsic clearance in rat hepatocytes assessed per million cells
Format: ADME, cell-based, Hepatocyte
condition.parameters: read-out: CLH
readout.label: hepatocyte CLint (µL/min/1e6 cells)

P: COc1cc(-n2ccc(NC(=O)C3(c4ccccc4F)CC3)n2)ccn1
Q: O=C(Cc1ccccc1F)Nc1nc(-c2ccccc2)cs1
Challenge: Of the two listed items, which has the higher hepatocyte CLint? First: P Second: Q Your answer should be the label attached to the chosen record.
Response given: Q
(Q: 281 µL/min/1e6 cells, P: 130 µL/min/1e6 cells)

I: N#Cc1ccccc1C1(C(=O)Nc2ccn(-c3cncc(F)c3)n2)CC1
II: O=C(Nc1ccn(-c2cncc(F)c2)n1)C1(c2ccc(Cl)cc2)CC1
Challenge: Field: lower recorded hepatocyte CLint (choose I or II ) Response format: the label of the selected entry.
Response given: I

P: C[C@H](C(=O)Nc1ccn(-c2ccccc2)n1)c1ccccc1
Q: Nc1cc(-n2ccc(NC(=O)C3(c4ccccc4F)CC3)n2)ccn1
R: O=C(Nc1ccn(-c2ccncc2)n1)C1(c2ccccc2F)CC1
S: O=C(Cc1ccccc1F)Nc1cnn(-c2ccccc2)n1
Challenge: Ranking field: hepatocyte CLint; order: falling. Write the labels, ordered according to the request.
Response given: S, P, R, Q

A: Cc1ccccc1C1(C(=O)Nc2ccn(-c3cncc(F)c3)n2)CC1
B: O=C(Nc1ccn(-c2ccnc(C(F)(F)F)c2)n1)C1(c2ccccc2F)CC1
Challenge: Could you tell me which of these two has the smaller hepatocyte CLint figure? First: A Second: B Give the label under which the chosen entry appears.
Response given: B
